Reference source for all entries: PubChem BioAssay (EPA / NIEHS)

- tested_target: Cellular tumor antigen p53 (Homo sapiens)
- run_description: ATG_p53_CIS: Attagene CIS-FACTORIAL HepG2 Assay for human p53 Transcription Factor (AID 2282994)
- measurement_setup: HepG2 p53 cis-element reporter, Attagene mRNA; actives raise or lower the signal
- Method: ATG_CIS is a cell-based, multiplexed-readout assay that uses HepG2, a human liver cell line, with measurements taken at 24 hours after chemical dosing in a 24-well plate.ATG_p53_CIS is one of 52 assay component(s) measured or calculated from the ATG_CIS assay. […] This assay endpoint, ATG_p53_CIS, was analyzed with bidirectional fitting relative to DMSO as the negative control and baseline of activity. […]
The source made the active and inactive calls. How the source made its calls: active means hit-call score of the fitted dose curve at least 0.9, where 1 is the maximum; inactive means score below 0.9.
Answer with one of the outcomes given here: T (active), F (inactive)

Example results:
Write down the call the test reported for this compound. Item: CC(C)C(C)(C)C(C)(C)C(C)(C)S
F

Please do the same for CCCCCCCCCCCCCCCCCC(=O)OCC(CC)CCCC (centres undefined) as well.
F

Please do the same for C=CC[N+](C)(C)CC=C as well.
F

Please do the same for OCCOCCOCCOCCO as well.
F

Please do the same for Cc1ccccc1C=O as well.
F

New cases:
Write down the call the test reported for this compound. Item: Cc1ccc(C(=O)c2cc(O)c(O)c([N+](=O)[O-])c2)cc1
F

Please do the same for O=c1cc(-c2ccccc2)oc2cc(O)cc(O)c12 as well.
T

Please do the same for Cc1c(Cl)c(=O)oc2cc(O)ccc12 as well.
F

Please do the same for COCCOCCOCCOCCOCCO as well.
F

* * *

- run_description: ATG_RORE_CIS: Attagene CIS-FACTORIAL HepG2 Assay for human RAR-related Orphan Receptor Element (RORE) (AID 2282959)
- measurement_setup: HepG2 Attagene cis-factorial RORE reporter, mRNA; actives raise or lower the signal
- Experimental: ATG_CIS is a cell-based, multiplexed-readout assay that uses HepG2, a human liver cell line, with measurements taken at 24 hours after chemical dosing in a 24-well plate.ATG_RORE_CIS is one of 52 assay component(s) measured or calculated from the ATG_CIS assay. […] This assay endpoint, ATG_RORE_CIS, was analyzed with bidirectional fitting relative to DMSO as the negative control and baseline of activity. […]
Activity calls are given as the source filed them. How the source made its calls: active means hit-call score of the fitted dose curve at least 0.9, where 1 is the maximum; inactive means score below 0.9.
Answer with one of the outcomes given here: active, inactive

Example results:
Write down the call the test reported for this compound. Item: OC1OC[C@@H](O)[C@H](O)[C@H]1O (stereo partly drawn)
inactive

Please do the same for COc1ccnc(CS(=O)c2nc3cc(OC(F)F)ccc3[nH]2)c1OC (stereo not drawn) as well.
inactive

Please do the same for COc1cccc(OC)c1 as well.
inactive

New cases:
Write down the call the test reported for this compound. Item: CCC(=O)/C=C/C1C(C)=CCCC1(C)C (stereo not drawn)
inactive

Please do the same for CCCCCCCCCCN as well.
inactive

Please do the same for O=C(O)COCCN1CCN(C(c2ccccc2)c2ccc(Cl)cc2)CC1 (stereo not drawn) as well.
inactive

Please do the same for [Ca+2] as well.
inactive

Please do the same for CCC/C=C/C=O as well.
inactive

Please do the same for O=C1OC2(c3cc(Br)c(O)c(Br)c3Oc3c2cc(Br)c(O)c3Br)c2c(Cl)c(Cl)c(Cl)c(Cl)c21 as well.
active

Please do the same for CC1CCC(C(C)CS)CC1S (stereo not drawn) as well.
inactive
